B1: tRNA (parent)
chain: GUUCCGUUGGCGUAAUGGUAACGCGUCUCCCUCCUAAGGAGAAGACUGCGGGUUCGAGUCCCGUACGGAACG

- Variants of: B1
- measurement notes: yeast fitness relative to wild type (ratio to wild type); higher = fitter; tRNA-Arg(CCU), competitive growth, 37 C, YPD
This sample holds only a part of the variants without activity.

mutation id	result qualifier	yeast fitness
C5G G51A A69U	=	0.528
C4A G23A U28A	≤	0.5
A15U C30U A37G	≤	0.5
G9C C27G G44A A57G	=	0.691
A20G C46G C49G	=	0.565
C22U C30A A40U A43U	≤	0.5
G12A A43U A45C C49U G67C	≤	0.5
C11G G25A A45C	≤	0.5
G18A C31A G44A	=	0.534
U8A G12A A21G	≤	0.5
U16A C31A C34G C60U G68U	≤	0.5
G9A G56A A70C	=	1.03
U3C A14U A40G C61G	=	0.567
A36G U47A	=	0.789
U3C C55U A65G	=	0.514
A15G G23C G44A	≤	0.5
C22G U32C U54A A65G	≤	0.5
C4U A15G C22U G44C	≤	0.5
A20C C24G C27U C31G U54C A65C	≤	0.5
C24G A42G A57G	≤	0.5
C46A C61U A69G	≤	0.5
C24A A70U	=	0.596
